These measurements were taken from ChEMBL document CHEMBL1141995.

Measured pIC50 values are reported for all entries that follow.
molecular target: UniProt:P09237
Sequence (P09237 whole entry): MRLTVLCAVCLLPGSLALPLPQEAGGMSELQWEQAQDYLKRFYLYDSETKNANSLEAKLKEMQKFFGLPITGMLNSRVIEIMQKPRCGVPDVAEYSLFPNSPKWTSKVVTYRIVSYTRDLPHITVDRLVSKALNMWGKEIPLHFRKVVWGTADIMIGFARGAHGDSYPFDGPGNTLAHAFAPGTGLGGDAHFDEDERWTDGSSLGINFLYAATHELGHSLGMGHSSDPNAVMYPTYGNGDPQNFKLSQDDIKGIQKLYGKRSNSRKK
pIC50: −log10 of the molar value.

COc1ccc(S(=O)(=O)N(Cc2cccnc2)[C@@H](C(=O)NO)C(C)C)cc1 [CGS-27023A]
7.00
CC(C)ON([C@H](CCNC(=O)OCc1ccccc1)C(=O)NO)S(=O)(=O)c1ccc(-c2ccccc2)cc1
< 4.61
CC(C)ON([C@@H](C(=O)NO)C(C)C)S(=O)(=O)c1ccc(-c2ccccc2)cc1
< 4.95

// moving on: another record for pIC50
(Q) So what does the record say about pIC50 for `CC(C)ON(CC(=O)NO)S(=O)(=O)c1ccc(-c2ccccc2)cc1` ?
(A) < 4.30

----------
biological target: Neutrophil collagenase (Homo sapiens, UniProt P22894); assay: Inhibition of human matrix metalloprotease-8
Sequence (P22894 whole entry): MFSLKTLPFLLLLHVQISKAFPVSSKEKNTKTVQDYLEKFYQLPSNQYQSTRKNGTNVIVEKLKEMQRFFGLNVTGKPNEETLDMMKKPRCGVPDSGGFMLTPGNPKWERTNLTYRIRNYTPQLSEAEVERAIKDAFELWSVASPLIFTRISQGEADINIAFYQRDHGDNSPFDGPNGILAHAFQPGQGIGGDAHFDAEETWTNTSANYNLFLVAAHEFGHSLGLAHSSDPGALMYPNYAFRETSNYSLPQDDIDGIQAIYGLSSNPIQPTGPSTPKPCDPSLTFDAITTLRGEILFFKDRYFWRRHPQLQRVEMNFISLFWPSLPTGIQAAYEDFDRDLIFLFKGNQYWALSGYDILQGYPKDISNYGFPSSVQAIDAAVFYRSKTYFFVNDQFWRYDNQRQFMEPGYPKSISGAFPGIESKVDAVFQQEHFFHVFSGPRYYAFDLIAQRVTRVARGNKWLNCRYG
endpoint_name: pIC50
Lab note — pIC50 values are minus log10 of concentrations in M.

(Q) So what does the record say about pIC50 for `CC(C)ON([C@@H](C(=O)NO)C(C)C)S(=O)(=O)c1ccc(-c2ccccc2)cc1` ?
(A) 8.80

----------
target: Stromelysin-1 (Homo sapiens)
Sequence (P08254 whole entry): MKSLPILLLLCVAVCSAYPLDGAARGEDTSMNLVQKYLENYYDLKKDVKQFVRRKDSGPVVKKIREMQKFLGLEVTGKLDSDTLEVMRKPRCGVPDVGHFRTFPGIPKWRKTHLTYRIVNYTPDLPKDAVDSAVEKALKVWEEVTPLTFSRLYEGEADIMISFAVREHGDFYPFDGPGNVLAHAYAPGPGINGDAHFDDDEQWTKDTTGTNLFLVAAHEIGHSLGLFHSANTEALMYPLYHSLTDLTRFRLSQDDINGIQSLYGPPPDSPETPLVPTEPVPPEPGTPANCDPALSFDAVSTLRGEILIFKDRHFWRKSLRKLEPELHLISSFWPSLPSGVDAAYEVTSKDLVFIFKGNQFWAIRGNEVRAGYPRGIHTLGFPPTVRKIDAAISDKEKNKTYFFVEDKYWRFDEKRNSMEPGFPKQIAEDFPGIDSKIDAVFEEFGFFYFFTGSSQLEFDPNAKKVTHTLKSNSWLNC
Measured pIC50 values are reported for all entries that follow.
Lab note — pIC50 values are minus log10 of concentrations in M.

CC(C)ON(CC(=O)NO)S(=O)(=O)c1ccc(-c2ccccc2)cc1
5.35

(Q) So what does the record say about pIC50 for `CC(C)ON([C@H](CCNC(=O)OCc1ccccc1)C(=O)NO)S(=O)(=O)c1ccc(-c2ccccc2)cc1` ?
(A) 6.89

----------
What follows is a collection of pIC50 values obtained with Matrix metalloproteinase-14 (Homo sapiens).
Lab note — pIC50 values are minus log10 of concentrations in M.

COc1ccc(S(=O)(=O)N(Cc2cccnc2)[C@@H](C(=O)NO)C(C)C)cc1 [CGS-27023A]
8.05

// moving on: another record for pIC50
(Q) So what does the record say about pIC50 for `CC1(C)SCCN(S(=O)(=O)c2ccc(Oc3ccncc3)cc2)[C@H]1C(=O)NO` ?
(A) 9.52

----------
Measured pIC50 values are reported for all entries that follow.
target: 72 kDa type IV collagenase (Homo sapiens, UniProt P08253)
Sequence (P08253 whole entry): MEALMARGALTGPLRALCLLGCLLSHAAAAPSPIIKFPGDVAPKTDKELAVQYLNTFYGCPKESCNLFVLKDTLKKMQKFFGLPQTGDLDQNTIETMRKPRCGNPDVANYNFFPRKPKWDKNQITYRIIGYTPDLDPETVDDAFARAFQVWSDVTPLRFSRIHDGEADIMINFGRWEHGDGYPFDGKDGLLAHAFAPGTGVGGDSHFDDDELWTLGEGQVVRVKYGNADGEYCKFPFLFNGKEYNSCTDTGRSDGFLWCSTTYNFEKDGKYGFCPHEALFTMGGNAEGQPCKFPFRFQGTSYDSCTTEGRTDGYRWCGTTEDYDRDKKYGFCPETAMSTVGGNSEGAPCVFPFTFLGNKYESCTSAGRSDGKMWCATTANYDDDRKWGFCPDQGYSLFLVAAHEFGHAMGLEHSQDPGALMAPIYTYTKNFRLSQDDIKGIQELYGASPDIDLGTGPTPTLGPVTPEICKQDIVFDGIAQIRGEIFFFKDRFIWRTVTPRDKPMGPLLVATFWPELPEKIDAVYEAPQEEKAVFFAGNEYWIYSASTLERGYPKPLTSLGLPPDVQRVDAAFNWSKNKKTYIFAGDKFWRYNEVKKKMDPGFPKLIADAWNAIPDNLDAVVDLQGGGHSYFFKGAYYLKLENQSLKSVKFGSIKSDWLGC
Lab note — pIC50 values are minus log10 of concentrations in M.

Consider the following illustrative entries.
CC(C)ON(CC(=O)NO)S(=O)(=O)c1ccc(-c2ccccc2)cc1
7.92
CC(C)ON([C@@H](C(=O)NO)C(C)C)S(=O)(=O)c1ccc(-c2ccccc2)cc1
10.05
CC(C)ON([C@H](C(=O)NO)C(C)C)S(=O)(=O)c1ccc(-c2ccccc2)cc1
7.99

// moving on: another record for pIC50
(Q) So what does the record say about pIC50 for CC(C)ON(C(C(=O)NO)C(C)C)S(=O)(=O)c1ccc(-c2ccccc2)cc1 (racemic) ?
(A) 8.74

----------
Target chain: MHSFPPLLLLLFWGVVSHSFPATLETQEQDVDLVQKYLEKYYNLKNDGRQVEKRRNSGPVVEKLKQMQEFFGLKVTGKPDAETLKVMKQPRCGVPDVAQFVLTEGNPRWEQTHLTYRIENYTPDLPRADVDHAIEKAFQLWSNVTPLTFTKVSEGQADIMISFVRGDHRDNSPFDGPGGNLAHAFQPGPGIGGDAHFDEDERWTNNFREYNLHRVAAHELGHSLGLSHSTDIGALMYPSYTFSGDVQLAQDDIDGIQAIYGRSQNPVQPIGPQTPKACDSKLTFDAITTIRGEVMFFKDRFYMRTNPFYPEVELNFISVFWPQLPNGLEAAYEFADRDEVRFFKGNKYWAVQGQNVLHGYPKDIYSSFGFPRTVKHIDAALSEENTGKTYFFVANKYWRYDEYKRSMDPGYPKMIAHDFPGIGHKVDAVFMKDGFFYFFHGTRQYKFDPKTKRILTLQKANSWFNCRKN
endpoint_name: IC50

(Q) So what does the record say about IC50 for `CC(C)ON(CC(=O)NO)S(=O)(=O)c1ccc(-c2ccccc2)cc1` ?
(A) > 50 µM
